PROCEDURE_TEXT: Prodrug stability in simulated gastric fluid (USP)
TEST_CONTEXT: 37° C.
REPORTED_METRIC: % prodrug remaining following incubation for: 1 h in simulated gastric fluid pH 1.1 (%)

Previously resolved entries follow.
COMPOUND: O=C1CCN=C(NC(=O)Cc2c(Cl)cccc2Cl)N1
UNITS_TEXT: %
OBS_VALUE: 51
--
COMPOUND: CC(C)[C@H](N)C(=O)N[C@H](CCC(=O)NC(=N)NC(=O)Cc1c(Cl)cccc1Cl)C(=O)O
UNITS_TEXT: %
OBS_VALUE: 93
--
COMPOUND: N=C(NC(=O)CC[C@H](NC(=O)[C@H](N)CO)C(=O)O)NC(=O)Cc1c(Cl)cccc1Cl
UNITS_TEXT: %
OBS_VALUE: 72
--
COMPOUND: C[C@@H](OC(=O)NC(=N)NC(=O)Cc1c(Cl)cccc1Cl)[C@H](NC(=O)[C@@H]1CCC(=O)N1)C(=O)O
UNITS_TEXT: %
OBS_VALUE: 92
--
COMPOUND: CC(C)[C@@H](N)C(=O)N[C@H](C(=O)O)[C@@H](C)OC(=O)NC(=N)NC(=O)Cc1c(Cl)cccc1Cl
UNITS_TEXT: %
OBS_VALUE: 83

[I] CC(C)[C@H](NC(=O)CC(C)(C)CC(=O)NC(=N)NC(=O)Cc1c(Cl)cccc1Cl)C(=O)O
[II] CN1CC(=O)N=C1NC(=O)Cc1c(Cl)cccc1Cl [Compound 12, Cyclised Guanfacine Sarcosine Amide]
Exercise: Of the two listed items, which has the higher % prodrug remaining following incubation for: 1 h in simulated gastric fluid pH 1.1? First: I Second: II Let me know the label of the one you choose.
Key: I
(I: 79%, II: 48%)

* * *

PROCEDURE_TEXT: Prodrug stability in simulated gastric fluid (USP)
TEST_CONTEXT: 37° C.
REPORTED_METRIC: % prodrug remaining following incubation for: 1 h in simulated gastric fluid pH 1.1 (%)

MOLECULE: N=C(NC(=O)CC[C@H](NC(=O)[C@H](N)Cc1ccc(O)cc1)C(=O)O)NC(=O)Cc1c(Cl)cccc1Cl [Compound 45]
UNITS_TEXT: %
OBS_VALUE: 74
//
MOLECULE: CC[C@H](C)[C@H](N)C(=O)NCCOC(=O)NC(=N)NC(=O)Cc1c(Cl)cccc1Cl [Compound 59]
UNITS_TEXT: %
OBS_VALUE: 92
//
MOLECULE: CC(C)[C@H](N)C(=O)N[C@@H](COC(=O)NC(=N)NC(=O)Cc1c(Cl)cccc1Cl)C(=O)O [Compound 17]
UNITS_TEXT: %
OBS_VALUE: 93
//
MOLECULE: CC(C)[C@@H](N)C(=O)N[C@@H](CCC(=O)NC(=N)NC(=O)Cc1c(Cl)cccc1Cl)C(=O)O [Compound 5]
UNITS_TEXT: %
OBS_VALUE: 86
//
MOLECULE: C[C@@H]1N=C(NC(=O)Cc2c(Cl)cccc2Cl)NC1=O [Compound 39, Guanfacine-(S)-Alanine Cyclic adduct]
UNITS_TEXT: %
OBS_VALUE: 89
//
MOLECULE: N=C(NC(=O)CCCNC(=O)[C@@H]1CCC(=O)N1)NC(=O)Cc1c(Cl)cccc1Cl [Compound 23]
UNITS_TEXT: %
OBS_VALUE: 98
//
MOLECULE: N=C(NC(=O)Cc1c(Cl)cccc1Cl)NC(=O)Oc1ccc(C[C@H](N)C(=O)O)cc1 [Compound 13, (S)-Tyrosine-(Guanfa ine) Carbamate]
UNITS_TEXT: %
OBS_VALUE: 74
//
MOLECULE: CNCC(=O)N[C@@H](CCOC(=O)NC(=N)NC(=O)Cc1c(Cl)cccc1Cl)C(=O)O [Compound 66]
UNITS_TEXT: %
OBS_VALUE: 86
//
MOLECULE: CC(C)[C@H](NC(=O)CCCC(=O)NC(=N)NC(=O)Cc1c(Cl)cccc1Cl)C(=O)O [Compound 1]
UNITS_TEXT: %
OBS_VALUE: 80
//
MOLECULE: CNCC(=O)NCCOC(=O)NC(=N)NC(=O)Cc1c(Cl)cccc1Cl [Compound 71]
UNITS_TEXT: %
OBS_VALUE: 91
//
MOLECULE: CC(C)[C@@H](N)C(=O)N[C@@H](C(=O)NC(=N)NC(=O)Cc1c(Cl)cccc1Cl)C(C)C [Compound 54, Guanfacine (R)-Valine-(R)-Valine Amide]
UNITS_TEXT: %
OBS_VALUE: 73
//
MOLECULE: N=C(NC(=O)Cc1c(Cl)cccc1Cl)NC(=O)OCC[C@H](N)C(=O)O [Compound 65, (S)-Homoserine Guanfacine Carbamate]
UNITS_TEXT: %
OBS_VALUE: 90
//
MOLECULE: N=C(NC(=O)Cc1c(Cl)cccc1Cl)NC(=O)c1ccc(N)cc1 [Compound 52, Guanfacine PABA Amide]
UNITS_TEXT: %
OBS_VALUE: 84
//
MOLECULE: CC(C)C[C@@H](N)C(=O)N[C@@H](CCC(=O)NC(=N)NC(=O)Cc1c(Cl)cccc1Cl)C(=O)O [Compound 42]
UNITS_TEXT: %
OBS_VALUE: 70

* * *

PROCEDURE_TEXT: Comparative pharmacokinetic screening study of guanfacine prodrugs in the monkey
TEST_CONTEXT: oral gavage
REPORTED_METRIC: prodrug levels in plasma (in words)

COMPOUND: CN(CC(=O)O)C(=O)NC(=N)NC(=O)Cc1c(Cl)cccc1Cl
REPORTED_METRIC: prodrug levels in plasma (in words)
OBS_VALUE: high prodrug levels

COMPOUND: O=C(O)CC[C@@H]1N=C(NC(=O)Cc2c(Cl)cccc2Cl)NC1=O [Compound 37, Guanfacine-(S)-Glutamic Cyclic adduct]
REPORTED_METRIC: prodrug levels in plasma (in words)
OBS_VALUE: high prodrug levels

* * *

PROCEDURE_TEXT: Prodrug stability in simulated intestinal fluid (USP)
TEST_CONTEXT: 37° C.
REPORTED_METRIC: % prodrug remaining following incubation for: 2 h in simulated intestinal fluid pH 6.8 (%)

MOLECULE: CC(C)[C@H](N)C(=O)N[C@H](C(=O)O)[C@@H](C)OC(=O)NC(=N)NC(=O)Cc1c(Cl)cccc1Cl
OBS_VALUE: 100
--
MOLECULE: NC(=O)CC[C@@H]1N=C(NC(=O)Cc2c(Cl)cccc2Cl)NC1=O [Compound 38, Guanfacine-(S)-Glutamine Cyclic adduct]
OBS_VALUE: 87
--
MOLECULE: CC(C)[C@H](N)C(=O)N[C@H](CCC(=O)NC(=N)NC(=O)Cc1c(Cl)cccc1Cl)C(=O)O
OBS_VALUE: 84
--
MOLECULE: N=C(NC(=O)CC[C@H](NC(=O)[C@H](N)CCC(N)=O)C(=O)O)NC(=O)Cc1c(Cl)cccc1Cl
OBS_VALUE: 81
--
MOLECULE: CC(C)[C@H](N)C(=O)NCCOC(=O)NC(=N)NC(=O)Cc1c(Cl)cccc1Cl
OBS_VALUE: 91
--
MOLECULE: CC(C)[C@H](NC(=O)COC(=O)NC(=N)NC(=O)Cc1c(Cl)cccc1Cl)C(=O)O
OBS_VALUE: 99
--
MOLECULE: N=C(NC(=O)CCCNC(=O)[C@@H]1CCC(=O)N1)NC(=O)Cc1c(Cl)cccc1Cl
OBS_VALUE: 78
--
MOLECULE: CC(C)(CO)[C@@H](O)C(=O)NCCCOC(=O)NC(=N)NC(=O)Cc1c(Cl)cccc1Cl [Compound 69, Guanfacine Panthenol Carbamate]
OBS_VALUE: 96
--
MOLECULE: C[C@@H](N)C(=O)N[C@@H](CCC(=O)NC(=N)NC(=O)Cc1c(Cl)cccc1Cl)C(=O)O
OBS_VALUE: 83
--
MOLECULE: CC(C)(COC(=O)NC(=N)NC(=O)Cc1c(Cl)cccc1Cl)[C@@H](O)C(=O)NCCC(=O)O [Compound 68, Guanfacine Pantothenic acid Carbamate]
OBS_VALUE: 75
--
MOLECULE: N=C(NC(=O)CC[C@H](NC(=O)c1ccc(N)cc1)C(=O)O)NC(=O)Cc1c(Cl)cccc1Cl
OBS_VALUE: 93
--
MOLECULE: N=C(NC(=O)CC[C@H](NC(=O)[C@H](N)CO)C(=O)O)NC(=O)Cc1c(Cl)cccc1Cl
OBS_VALUE: 89

* * *

PROCEDURE_TEXT: Prodrug stability in simulated gastric fluid (USP)
TEST_CONTEXT: 37° C.
REPORTED_METRIC: % prodrug remaining following incubation for: 1 h in simulated gastric fluid pH 1.1 (%)

MOLECULE: N=C(NC(=O)Cc1c(Cl)cccc1Cl)NC(=O)O[C@@H]1CN[C@H](C(=O)O)C1 [Compound 14]
UNITS_TEXT: %
OBS_VALUE: 70
//
MOLECULE: N=C(NC(=O)CC[C@H](NC(=O)[C@H](N)CCCCN)C(=O)O)NC(=O)Cc1c(Cl)cccc1Cl [Compound 43]
UNITS_TEXT: %
OBS_VALUE: 62
//
MOLECULE: CNCC(=O)N[C@H](C(=O)O)[C@@H](C)OC(=O)NC(=N)NC(=O)Cc1c(Cl)cccc1Cl [Compound 63]
UNITS_TEXT: %
OBS_VALUE: 86
//
MOLECULE: CC(C)[C@H](N)C(=O)NCCC(=O)NC(=N)NC(=O)Cc1c(Cl)cccc1Cl [Compound 2]
UNITS_TEXT: %
OBS_VALUE: 75
//
MOLECULE: N=C(NC(=O)CC[C@H](NC(=O)c1ccc(C(=O)O)cc1)C(=O)O)NC(=O)Cc1c(Cl)cccc1Cl [Compound 60]
UNITS_TEXT: %
OBS_VALUE: 81
//
MOLECULE: CC(C)[C@@H](N)C(=O)NCCOC(=O)NC(=N)NC(=O)Cc1c(Cl)cccc1Cl [Compound 27]
UNITS_TEXT: %
OBS_VALUE: 78
//
MOLECULE: CC(C)[C@@H](N)C(=O)N[C@H](CCC(=O)NC(=N)NC(=O)Cc1c(Cl)cccc1Cl)C(=O)O [Compound 31]
UNITS_TEXT: %
OBS_VALUE: 70
